Recorded values, source patent US20240336909A1.

- assay.system: T1, human EpCAM protein (human, UniProt P16422 24-265)
- T1 construct: biotinylated in the Octet assays; also called hu EpCAM; biotinylated human EpCAM protein
- T1 sequence (looked up): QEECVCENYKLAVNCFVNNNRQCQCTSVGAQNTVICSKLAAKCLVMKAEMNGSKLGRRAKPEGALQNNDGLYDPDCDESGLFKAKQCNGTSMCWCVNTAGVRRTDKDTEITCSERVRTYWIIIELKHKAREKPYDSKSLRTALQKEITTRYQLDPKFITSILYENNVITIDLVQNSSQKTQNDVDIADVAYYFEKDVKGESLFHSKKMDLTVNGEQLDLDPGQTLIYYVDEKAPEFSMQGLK
- experiment: colorimetric ELISA
- Excerpt: Llamas were immunized with purified EpCAM protein expressed in Expi293 cells. A phage display library for expression of heavy variable antibody domains was constructed from circulating B cells. See van der Linden, de Geus, Stok, Bos,van Wassenaar, Verrips, and Frenken. 2000. J Immunol Methods 240:185-195. […]
quantity.name: Human EpCAM/Control (ratio)
Form entry: value (ratio) — number only.

Llama anti-EpCAM single domain antibody EPL126 (VHH, E. coli periplasmic extract) VHH: QVQLQESGGGLVQAGGSLRLSCAASGFIFRAASMGWYRQSPGNERELVATINSGGFTNYADSVKGRFTISRDNAKNTGYLQMNSLKPEDTAVYFCAATFLRSDGQPPIWGQGTQVTVSS yielded Human EpCAM/Control of 5

The reported value for Llama anti-EpCAM single domain antibody EPL138 (VHH, E. coli periplasmic extract) VHH: QVQLQESGGGLVQAGGSLRLSCAASGFIFRAASMDWYRQFPGNERESIATISSGGFTNYADSVKGRFTISRDNAKNTVYLQMNSLKPEDTAVYFCGATFLRSDGHHTINGQGTQVTVSS in terms of Human EpCAM/Control is 3
